Form field: metabolised at 2 h (one value per entry).
# Protocol details: Conversion (release) of prodrug salts to parent compound in mouse plasma
# Type: in vitro ADME
# Experimental conditions: mouse, plasma, 37 °C, 2 h, read-out: Release rate (conversion to Compound 1)
All answers are understood in %, so give the number only.

| Compound string | Display unit | metabolised at 2 h |
| --- | --- | --- |
| CCOC(=O)[C@@H]1CCCN1C[C@@H]1C(=O)O[C@H]2[C@H]1CC[C@@]1(C)C[C@]13CC[C@@](C)(O)[C@H]23 | % | 14.3 |

# metabolised at 2 h of CCCN(CCC)C[C@@H]1C(=O)O[C@H]2[C@H]1CC[C@@]1(C)C[C@]13CC[C@@](C)(O)[C@H]23 = 14.2

# metabolised at 2 h of C[C@@]12CC[C@@H]3[C@H](OC(=O)[C@H]3CN3CCC4(CC3)CC4)[C@@H]3[C@]1(CC[C@@]3(C)O)C2 = 17.8

# metabolised at 2 h of C[C@@]12CC[C@@H]3[C@H](OC(=O)[C@H]3CN3CCC(N4CCCCC4)CC3)[C@@H]3[C@]1(CC[C@@]3(C)O)C2 = 13.6

---

Form field: metabolised at 4 h (one value per entry).
# Protocol details: Conversion (release) of prodrug salts to parent compound in mouse plasma
# Format: in vitro ADME
# Experimental conditions: mouse, plasma, 37 °C, 4 h, read-out: Release rate (conversion to Compound 1)
All answers are understood in %, so give the number only.

Some solved cases for reference:
| Compound | metabolised at 4 h [%] |
| --- | --- |
| C[C@@]12CC[C@@H]3[C@H](OC(=O)[C@H]3CN3CCC3)[C@@H]3[C@]1(CC[C@@]3(C)O)C2 [Compound 33] | 26 |
| CCCCN(CCCC)C[C@@H]1C(=O)O[C@H]2[C@H]1CC[C@@]1(C)C[C@]13CC[C@@](C)(O)[C@H]23 [Compound 30] | 23.8 |
| C[C@@]12CC[C@@H]3[C@H](OC(=O)[C@H]3CN3CCOCC3)[C@@H]3[C@]1(CC[C@@]3(C)O)C2 [Compound 25] | 25.7 |
| C[C@@]12CC[C@@H]3[C@H](OC(=O)[C@H]3CN3CCCC3)[C@@H]3[C@]1(CC[C@@]3(C)O)C2 [Compound 22] | 27.6 |
| C[C@@]12CC[C@@H]3[C@H](OC(=O)[C@H]3CN3CCC4(CCCC4)CC3)[C@@H]3[C@]1(CC[C@@]3(C)O)C2 [Compound 34] | 28.6 |

Proceeding to the next compound to report its metabolised at 4 h.
# metabolised at 4 h of C[C@@]12CC[C@@H]3[C@H](OC(=O)[C@H]3CN3CCC(N4CCOCC4)CC3)[C@@H]3[C@]1(CC[C@@]3(C)O)C2 [Compound 36] = 26

---

Form field: degraded at 8 h (one value per entry).
# Protocol details: Conversion (release) of prodrug salts to parent compound in HEPES buffer pH 7.4
# Format: in vitro ADME
# Experimental conditions: hepes buffer, pH 7.4, HEPES pH 7.4, 37 °C, 8 h; read-out: Release rate (conversion to Compound 1)
All answers are understood in %, so give the number only.

Some solved cases for reference:
| Molecule | degraded at 8 h [%] |
| --- | --- |
| C[C@@]12CC[C@@H]3[C@H](OC(=O)[C@H]3CN3CC4CCCC4C3)[C@@H]3[C@]1(CC[C@@]3(C)O)C2 (stereo partly drawn) | 42.2 |
| CN(C)C[C@@H]1C(=O)O[C@H]2[C@H]1CC[C@@]1(C)C[C@]13CC[C@@](C)(O)[C@H]23 | 42.7 |

Proceeding to the next molecule to report its degraded at 8 h.
# degraded at 8 h of C[C@@]12CC[C@@H]3[C@H](OC(=O)[C@H]3CN3CCC4(CC3)CC4)[C@@H]3[C@]1(CC[C@@]3(C)O)C2 = 44.1

---

# Protocol details: Conversion (release) of prodrug salts to parent compound in mouse plasma
# Format: in vitro ADME
# Experimental conditions: mouse, plasma, 37 °C, 1 h, read-out: Release rate (conversion to Compound 1)
Form field: metabolised at 1 h (one value per entry).
All answers are understood in %, so give the number only.

# metabolised at 1 h of C[C@@]12CC[C@@H]3[C@H](OC(=O)[C@H]3CN3CCC(N4CCCCC4)CC3)[C@@H]3[C@]1(CC[C@@]3(C)O)C2 [Compound 35] = 6.8

# metabolised at 1 h of C[C@@]12CC[C@@H]3[C@H](OC(=O)[C@H]3CN3CCC3)[C@@H]3[C@]1(CC[C@@]3(C)O)C2 [Compound 33] = 6.9

# metabolised at 1 h of CCN(CC)C[C@@H]1C(=O)O[C@H]2[C@H]1CC[C@@]1(C)C[C@]13CC[C@@](C)(O)[C@H]23 [Compound 28] = 6.8

---

# Protocol details: Conversion (release) of prodrug salts to parent compound in mouse plasma
# Type: in vitro ADME
# Experimental conditions: mouse, plasma, 37 °C, 8 h, read-out: Release rate (conversion to Compound 1)
# Method: Pharmaceutically acceptable salts of guaiane-type sesquiterpene lactone derivatives were selected and evaluated for their conversion rates to Compound 1 and Compound 83 in plasma and HEPES buffer, with results shown in Tables 2-1, 2-2, 3-1, and 3-2. Plasma Preparation: Collect mouse plasma into an EP tube pre-loaded with sodium heparin, centrifuge at 8000 rpm for 10 minutes at 4° C., and then collect the supernatant. […]
Form field: metabolised at 8 h (one value per entry).
All answers are understood in %, so give the number only.

| Compound | Assay metric | Readout number |
| --- | --- | --- |
| C[C@@]12CC[C@@H]3[C@H](OC(=O)[C@H]3CN3CCC4(CC3)CC4)[C@@H]3[C@]1(CC[C@@]3(C)O)C2 | metabolised at 8 h | 48.1 |
| C[C@@]12CC[C@@H]3[C@H](OC(=O)[C@H]3CN3CCC3)[C@@H]3[C@]1(CC[C@@]3(C)O)C2 | metabolised at 8 h | 42.8 |
| C[C@@]12CC[C@@H]3[C@H](OC(=O)[C@H]3CN3CCC(N4CCOCC4)CC3)[C@@H]3[C@]1(CC[C@@]3(C)O)C2 | metabolised at 8 h | 43.6 |
| CCCCN(CCCC)C[C@@H]1C(=O)O[C@H]2[C@H]1CC[C@@]1(C)C[C@]13CC[C@@](C)(O)[C@H]23 | metabolised at 8 h | 40.8 |

# metabolised at 8 h of CC(C)N(C[C@@H]1C(=O)O[C@H]2[C@H]1CC[C@@]1(C)C[C@]13CC[C@@](C)(O)[C@H]23)C(C)C = 40.2

# metabolised at 8 h of CCN(CC)C[C@@H]1C(=O)O[C@H]2[C@H]1CC[C@@]1(C)C[C@]13CC[C@@](C)(O)[C@H]23 = 40.4

---

# Protocol details: Conversion (release) of prodrug salts to parent compound in mouse plasma
# Type: in vitro ADME
# Experimental conditions: mouse, plasma, 37 °C, 8 h, read-out: Release rate (conversion to Compound 1)
Form field: metabolised at 8 h (one value per entry).
All answers are understood in %, so give the number only.

| Compound | Display unit | metabolised at 8 h |
| --- | --- | --- |
| C[C@@]12CC[C@@H]3[C@H](OC(=O)[C@H]3CN3CCC(N4CCCCC4)CC3)[C@@H]3[C@]1(CC[C@@]3(C)O)C2 | % | 44.8 |
| C[C@@]12CC[C@@H]3[C@H](OC(=O)[C@H]3CN3CCCC3)[C@@H]3[C@]1(CC[C@@]3(C)O)C2 | % | 46.3 |
| C[C@@]12CC[C@@H]3[C@H](OC(=O)[C@H]3CN3CCC4(CCCC4)CC3)[C@@H]3[C@]1(CC[C@@]3(C)O)C2 | % | 47.6 |

# metabolised at 8 h of C[C@@]12CC[C@@H]3[C@H](OC(=O)[C@H]3CN3CC4CCCC4C3)[C@@H]3[C@]1(CC[C@@]3(C)O)C2 (some centres unmarked) = 43.2

# metabolised at 8 h of C[C@@]12CC[C@@H]3[C@H](OC(=O)[C@H]3CN3CCCCC3)[C@@H]3[C@]1(CC[C@@]3(C)O)C2 = 47.8
